System Tested: human mAChR M4 (Homo sapiens)
Construct: expressed in transfected cells; host or cells: CHO-K1 (ATCC), stably expressing hM4 and Gqi5
Sequence (P08173 whole entry): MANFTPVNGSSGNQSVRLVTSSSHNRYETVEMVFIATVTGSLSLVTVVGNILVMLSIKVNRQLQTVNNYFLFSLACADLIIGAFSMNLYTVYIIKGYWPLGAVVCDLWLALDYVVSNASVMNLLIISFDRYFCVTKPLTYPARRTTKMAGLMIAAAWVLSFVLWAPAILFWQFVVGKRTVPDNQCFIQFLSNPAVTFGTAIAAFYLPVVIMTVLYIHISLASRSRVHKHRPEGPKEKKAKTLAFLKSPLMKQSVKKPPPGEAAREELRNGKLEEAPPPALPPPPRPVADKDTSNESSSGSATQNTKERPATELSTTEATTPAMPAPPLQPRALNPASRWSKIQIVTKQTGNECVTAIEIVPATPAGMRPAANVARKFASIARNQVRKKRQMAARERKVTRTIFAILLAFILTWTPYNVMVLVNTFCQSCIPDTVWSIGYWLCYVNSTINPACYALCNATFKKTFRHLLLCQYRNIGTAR
Test Summary: mAChR M4 cell-based functional assay: calcium flux (Fluo-4, FDSS), positive allosteric modulator activity on the EC20 acetylcholine response, hM4-Gqi5 CHO-K1 cells
Measurement Conditions: CHO-K1, human M4; % ACh maximum at 30 μM
Experimental Endpoint: Emax at 30 µM (%)

# Compound, Emax at 30 µM [%]
records = [
    ("Fc1ccc2nc(Oc3ccccc3F)nc(N3CCc4ncc(C(F)(F)F)cc4C3)c2c1", 96),
    ("Cc1cc(F)ncc1-c1cnc2c(c1)CN(c1ncnc3ccc(F)cc13)CC2", 95),
    ("Cc1ccc2nc(Cl)nc(N3CCc4ncc(-c5cnn(C6CC6)c5)cc4C3)c2c1", 113),
    ("Cc1nc(N2CCc3ncc(-c4cc(C(F)(F)F)nn4C)cc3C2)c2cc(Cl)ccc2n1", 87),
]

(1) CN1CCN(c2cnc3c(c2)CN(c2ncnc4ccc(F)cc24)CC3)CC1=O
(2) COc1cc2c(N3CCc4ncc(-c5cn(C)nc5C)cc4C3)nc(Cl)nc2cc1F
Hi, I'm comparing two records. Which one has the lower Emax at 30 µM, 1 or 2 ? Returns: label corresponding to the selected item.
2

Reference source: patent US20250026752A1
